B1: TPD52L2 (parent)
chain: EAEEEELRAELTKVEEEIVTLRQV

# Variants of: B1
# PROCEDURE_TEXT: protein stability index of a GFP-peptide fusion (GPS, HEK-293T) (PSI 1-6); higher = more stable;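 also: lentivirally expressed fusions sorted by FACS into six bins by GFP to DsRed ratio, PSI derived from sequencing read proportions per bin multiplied by bin number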
# CONDITIONS: c terminus: a fixed tail appended
# binarize protein stability index: threshold 4 inclusive, high side 1, low side 0

| MUTATION_LABEL | DISCRETE_LABEL |
| --- | --- |
| E3T | 0 |
| E4P | 0 |
| E15V | 0 |
| R8P | 1 |
| R8F | 0 |
| V19R | 0 |
| E6G | 0 |
| T12K | 0 |
| L7D | 1 |
| L21N | 1 |
| T12Y | 0 |
| E5W | 0 |
| T12D | 1 |
| R8M | 0 |
| L7Q | 1 |
| A9S | 1 |
| V24K | 1 |
| E15G | 1 |
| E4S | 0 |
| E15Y | 0 |
| E15K | 1 |
| E4C | 0 |
| L7K | 1 |
| E1P | 0 |
| A2S | 0 |
| L7I | 1 |
| E3N | 0 |
| V14S | 1 |
| E5H | 0 |
| E15S | 1 |
| T12C | 0 |
| R22P | 1 |
| A9R | 0 |
| E1N | 0 |
| K13P | 1 |
| E15L | 0 |
| R22M | 0 |
| Q23A | 0 |
| E15I | 0 |
| Q23N | 1 |
| E4A | 0 |
| E15R | 1 |
| V19L | 0 |
| L11C | 1 |
| K13F | 1 |
| T12L | 0 |
| E17C | 1 |
| A9L | 0 |
| E16P | 1 |
| L21A | 1 |
| A9V | 0 |
| E6I | 0 |
| E17T | 1 |
| L21V | 1 |
| E6R | 0 |
| E5C | 0 |
| T20P | 1 |
| E5K | 0 |
| E6C | 0 |
| L11V | 1 |
| E3D | 1 |
| E5M | 0 |
| E4N | 1 |
| L11S | 1 |
| K13V | 1 |
| E10P | 1 |
| V14E | 1 |
| E3P | 0 |
| L21K | 1 |
